System: system I cytochrome c biogenesis
experiment: Metalloprotoporphyrin IX addition, E. coli Δccm with pRGK333 (system I), pRGK332 and pHPEX2
Assay type: cell-based
conditionDetails: holocytochrome c4:6×His, heme stain; read-out: concentration required for 50% inhibition of system I
pIC50: −log10 of the molar value.
observationType: pIC50

Measured pIC50, C=Cc1c2[n-]c(c1C)/C=c1\[n-]/c(c(C)c1C=C)=C\c1[n-]c(c(CCC(=O)O)c1C)C=c1[n-]/c(c(C)c1CCC(=O)O)=C\2.[Sn+4] : ~4.19
